Biological target: 17β-HSD1 (Homo sapiens (Human))
Sequence (P14061 whole entry): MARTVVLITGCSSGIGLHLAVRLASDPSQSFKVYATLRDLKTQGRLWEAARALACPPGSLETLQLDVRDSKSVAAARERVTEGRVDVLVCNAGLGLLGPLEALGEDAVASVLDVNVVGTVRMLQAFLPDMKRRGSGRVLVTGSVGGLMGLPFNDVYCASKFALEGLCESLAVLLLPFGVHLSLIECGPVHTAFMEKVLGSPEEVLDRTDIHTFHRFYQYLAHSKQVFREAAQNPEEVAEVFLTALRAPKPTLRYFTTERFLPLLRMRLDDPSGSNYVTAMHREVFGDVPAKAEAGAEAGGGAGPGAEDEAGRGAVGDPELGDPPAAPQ
Experiment: 17β-HSD1 test assay (recombinant protein from Sf9 insect cells, 3H-estrone/NADPH)
Type: biochemical
Settings: read-out: HSD1 100 nM (% inhibition); inhibitor 100 nM
Protocol: Recombinant protein obtained from Sf9 insect cells (0.1 μg/ml) is incubated with 20 mM KH2PO4, pH 7.4, 30 nM ^3H-estrone and 1 mM NADPH for 30 min at RT in the presence of the potential inhibitor in a concentration of 1 μM or 100 nM. The stock solutions of the compounds are prepared in DMSO (dimethylsulfoxide) so that the final concentration of DMSO in the sample is 1%. […] The radioactivity was measured by means of a Packard Flow Scintillation Analyzer. […]
MEASUREMENT NAME: inhibition at 0.1 µM

• Nc1cccc(-c2ccc3cc(O)ccc3c2)c1 = < 10%
• Oc1cccc(-c2ccc3c(-c4cncnc4)c(O)ccc3c2)c1 = < 10%
• O=S(=O)(Nc1cccc(-c2c(O)ccc3cc(-c4cccc(O)c4)ccc23)c1)c1cccc2cccnc12 = 71.2%
• O=S(=O)(Nc1nccs1)c1cccc(-c2c(O)ccc3cc(-c4cccc(O)c4)ccc23)c1 = 87%
• Oc1cccc(-c2ccc3c(O)cccc3c2)c1 [Compound 24, 6-(3-Hydroxyphenyl)-1-naphthol] = < 10%
• O=[N+]([O-])c1ccc(S(=O)(=O)Nc2cccc(-c3c(O)ccc4cc(-c5cccc(O)c5)ccc34)c2)cc1 = 71.5%
• O=S(=O)(Nc1cccc(-c2c(O)ccc3cc(-c4cccc(O)c4)ccc23)c1)c1ccc(Br)cc1OC(F)(F)F = 40.5%
• O=C(CCc1cc(O)cc(-c2ccc3cc(O)ccc3c2)c1)Nc1ccccc1 = < 10%

FYI, the data here is from patent US8546392B2.
